# test target: recombinant SARS-CoV-2 Main protease (Mpro) (Severe acute respiratory syndrome coronavirus 2 (2019-nCoV) (SARS-CoV-2))
# method notes: Cov Mpro Biochemical IC50 Assay
# measurement setup: recombinant SARS-CoV-2 Mpro 7.5 nM, fluorogenic peptide substrate 40 μM; read-out: MPro IC50
value type: IC50 (nM)
Give your result in nM as a bare value.

compound | scale unit | reported value
COc1cc(-c2cc3c(s2)c(=O)n(-c2cncc4nn(C)c(C)c24)c(=O)n3CCC#N)c(Cl)cc1F [Example 926] | nM | 6.74
Cc1ccc(C#N)cc1-c1cc2[nH]c(=O)n(-c3cncc4ccccc34)c(=O)c2s1 | nM | 15.4

QUERY: Which IC50 is listed for N#CCCn1c(=O)n(-c2cncc(Cl)c2)c(=O)c2sc(-c3ccc(F)cc3Cl)cc21 ?
RESULT: 13

QUERY: Repeat with COc1cc(-c2cc3c(s2)c(=O)n(-c2cncc4ccc(C#CC(C)(C)O)cc24)c(=O)n3CCC#N)c(Cl)cc1F
RESULT: 7.28

QUERY: Repeat with COc1cc(-c2cc3c(s2)c(=O)n(-c2cc(C)cnn2)c(=O)n3CCC#N)c(C#N)cc1F
RESULT: 8.87

QUERY: Repeat with O=c1[nH]c2cc(-c3ccccc3Cl)sc2c(=O)n1-c1cncc2ccc(N3CCC(O)(C(F)(F)F)CC3)cc12
RESULT: 15.6

QUERY: Repeat with COc1cc(-c2cc3c(s2)c(=O)n(-c2cncc4ccc(F)cc24)c(=O)n3CCC#N)c(Cl)cc1F
RESULT: 8

Data credit: patent US20240116946A1
